# assay_text: self-splicing fitness, log relative to wild type (ln ratio); higher = more splicing; Tetrahymena group I intron in knt gene, E. coli kanamycin selection, DiMSum; sequences stand for … in CUCUCU…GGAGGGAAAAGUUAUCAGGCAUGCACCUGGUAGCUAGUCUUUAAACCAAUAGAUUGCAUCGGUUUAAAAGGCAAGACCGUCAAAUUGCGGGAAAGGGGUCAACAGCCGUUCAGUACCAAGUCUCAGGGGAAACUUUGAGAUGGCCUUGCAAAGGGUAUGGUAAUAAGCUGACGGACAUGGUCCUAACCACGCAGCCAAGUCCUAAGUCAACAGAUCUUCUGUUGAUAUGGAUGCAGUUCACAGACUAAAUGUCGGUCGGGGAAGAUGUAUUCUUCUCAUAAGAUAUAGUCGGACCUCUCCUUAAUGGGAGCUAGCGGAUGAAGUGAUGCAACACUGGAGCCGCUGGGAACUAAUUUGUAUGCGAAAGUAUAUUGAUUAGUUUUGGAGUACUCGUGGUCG;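 further: selection with 25 µg/mL kanamycin versus none on LB agar overnight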
# test_settings: 30 °C
quantity: self-splicing fitness (ln)

[
  {
    "ordered_residues": "GCCCAGCAAUAUUACGCCAA",
    "quantity": "self-splicing fitness (ln)",
    "value": -3.11
  },
  {
    "ordered_residues": "CAGAAGCAAUAUUACGGUAC",
    "quantity": "self-splicing fitness (ln)",
    "value": -4.59
  },
  {
    "ordered_residues": "GCAUAGCAAUAUUACGGCCG",
    "quantity": "self-splicing fitness (ln)",
    "value": -2.37
  },
  {
    "ordered_residues": "UGUAAGCAAUAUUACGGAAC",
    "quantity": "self-splicing fitness (ln)",
    "value": -2.78
  },
  {
    "ordered_residues": "AAGUAGCAAUAUUACGUUUG",
    "quantity": "self-splicing fitness (ln)",
    "value": -2.41
  },
  {
    "ordered_residues": "CCAAAGCAAUAUUACGUUUA",
    "quantity": "self-splicing fitness (ln)",
    "value": -3.26
  },
  {
    "ordered_residues": "UUGCAGCAAUAUUACGAAUU",
    "quantity": "self-splicing fitness (ln)",
    "value": -2.18
  },
  {
    "ordered_residues": "GAGGAGCAAUAUUACGUGCU",
    "quantity": "self-splicing fitness (ln)",
    "value": -4.62
  },
  {
    "ordered_residues": "CACUAGCAAUAUUACGAUAC",
    "quantity": "self-splicing fitness (ln)",
    "value": -3.41
  },
  {
    "ordered_residues": "UGCAAGCAAUAUUACGUCCU",
    "quantity": "self-splicing fitness (ln)",
    "value": -0.656
  },
  {
    "ordered_residues": "GGCUAGCAAUAUUACGAAUG",
    "quantity": "self-splicing fitness (ln)",
    "value": -2.26
  },
  {
    "ordered_residues": "GAGUAGCAAUAUUACGGCCA",
    "quantity": "self-splicing fitness (ln)",
    "value": -1.95
  },
  {
    "ordered_residues": "UAUCAGCAAUAUUACGCUGG",
    "quantity": "self-splicing fitness (ln)",
    "value": -3.15
  },
  {
    "ordered_residues": "AAUUAGCAAUAUUACGUAUA",
    "quantity": "self-splicing fitness (ln)",
    "value": -1.83
  },
  {
    "ordered_residues": "UCCCAGCAAUAUUACGAUCA",
    "quantity": "self-splicing fitness (ln)",
    "value": -1.48
  },
  {
    "ordered_residues": "CCCGAGCAAUAUUACGAUUG",
    "quantity": "self-splicing fitness (ln)",
    "value": -2.74
  },
  {
    "ordered_residues": "CCUUAGCAAUAUUACGGUUU",
    "quantity": "self-splicing fitness (ln)",
    "value": -4.06
  },
  {
    "ordered_residues": "UUCUAGCAAUAUUACGCACA",
    "quantity": "self-splicing fitness (ln)",
    "value": -0.654
  },
  {
    "ordered_residues": "AGGUAGCAAUAUUACGUAAA",
    "quantity": "self-splicing fitness (ln)",
    "value": -2.28
  },
  {
    "ordered_residues": "AUUCAGCAAUAUUACGGAAG",
    "quantity": "self-splicing fitness (ln)",
    "value": -1.02
  },
  {
    "ordered_residues": "UUAGAGCAAUAUUACGAAGU",
    "quantity": "self-splicing fitness (ln)",
    "value": -3.03
  },
  {
    "ordered_residues": "UUCAAGCAAUAUUACGCUGG",
    "quantity": "self-splicing fitness (ln)",
    "value": -2.29
  },
  {
    "ordered_residues": "AAUUAGCAAUAUUACGAUUC",
    "quantity": "self-splicing fitness (ln)",
    "value": -2.85
  },
  {
    "ordered_residues": "GACUAGCAAUAUUACGGGGU",
    "quantity": "self-splicing fitness (ln)",
    "value": -4.18
  },
  {
    "ordered_residues": "GCACAGCAAUAUUACGAGCU",
    "quantity": "self-splicing fitness (ln)",
    "value": -2.63
  },
  {
    "ordered_residues": "GGUCAGCAAUAUUACGACAA",
    "quantity": "self-splicing fitness (ln)",
    "value": -0.264
  },
  {
    "ordered_residues": "GCCUAGCAAUAUUACGUUUA",
    "quantity": "self-splicing fitness (ln)",
    "value": -2.34
  },
  {
    "ordered_residues": "CCGGAGCAAUAUUACGCUAC",
    "quantity": "self-splicing fitness (ln)",
    "value": -2.55
  },
  {
    "ordered_residues": "CCGCAGCAAUAUUACGCAGA",
    "quantity": "self-splicing fitness (ln)",
    "value": -2.89
  },
  {
    "ordered_residues": "AAAUAGCAAUAUUACGGGAG",
    "quantity": "self-splicing fitness (ln)",
    "value": -2.29
  },
  {
    "ordered_residues": "ACAUAGCAAUAUUACGCUCU",
    "quantity": "self-splicing fitness (ln)",
    "value": -0.768
  },
  {
    "ordered_residues": "GUUAAGCAAUAUUACGGUGG",
    "quantity": "self-splicing fitness (ln)",
    "value": -3.52
  },
  {
    "ordered_residues": "AUCCAGCAAUAUUACGCAAC",
    "quantity": "self-splicing fitness (ln)",
    "value": -2.21
  },
  {
    "ordered_residues": "GGCGAGCAAUAUUACGGCGU",
    "quantity": "self-splicing fitness (ln)",
    "value": -2.49
  },
  {
    "ordered_residues": "CAAAAGCAAUAUUACGUAUC",
    "quantity": "self-splicing fitness (ln)",
    "value": -4.08
  },
  {
    "ordered_residues": "GCAUAGCAAUAUUACGUUUA",
    "quantity": "self-splicing fitness (ln)",
    "value": -2.47
  },
  {
    "ordered_residues": "ACUGAGCAAUAUUACGCCGG",
    "quantity": "self-splicing fitness (ln)",
    "value": -2.48
  },
  {
    "ordered_residues": "AAUUAGCAAUAUUACGACUU",
    "quantity": "self-splicing fitness (ln)",
    "value": 0.0659
  },
  {
    "ordered_residues": "UCGCAGCAAUAUUACGCUGU",
    "quantity": "self-splicing fitness (ln)",
    "value": -3.13
  },
  {
    "ordered_residues": "GUCUAGCAAUAUUACGCUCA",
    "quantity": "self-splicing fitness (ln)",
    "value": 0.346
  },
  {
    "ordered_residues": "AUAAAGCAAUAUUACGAUGA",
    "quantity": "self-splicing fitness (ln)",
    "value": -0.326
  },
  {
    "ordered_residues": "CGUGAGCAAUAUUACGCCCU",
    "quantity": "self-splicing fitness (ln)",
    "value": -3.26
  },
  {
    "ordered_residues": "AGUUAGCAAUAUUACGGCCG",
    "quantity": "self-splicing fitness (ln)",
    "value": -0.855
  },
  {
    "ordered_residues": "UGCGAGCAAUAUUACGAGGA",
    "quantity": "self-splicing fitness (ln)",
    "value": -3.56
  },
  {
    "ordered_residues": "CCCUAGCAAUAUUACGAUGA",
    "quantity": "self-splicing fitness (ln)",
    "value": -3.24
  },
  {
    "ordered_residues": "GUCCAGCAAUAUUACGUUAA",
    "quantity": "self-splicing fitness (ln)",
    "value": -1.64
  },
  {
    "ordered_residues": "GUGAAGCAAUAUUACGUGCG",
    "quantity": "self-splicing fitness (ln)",
    "value": -0.0545
  },
  {
    "ordered_residues": "AACCAGCAAUAUUACGGUAC",
    "quantity": "self-splicing fitness (ln)",
    "value": -2.82
  },
  {
    "ordered_residues": "CUUCAGCAAUAUUACGAAGC",
    "quantity": "self-splicing fitness (ln)",
    "value": -2.1
  },
  {
    "ordered_residues": "CGAUAGCAAUAUUACGGUUA",
    "quantity": "self-splicing fitness (ln)",
    "value": -0.777
  },
  {
    "ordered_residues": "AACUAGCAAUAUUACGUACU",
    "quantity": "self-splicing fitness (ln)",
    "value": -0.0487
  },
  {
    "ordered_residues": "UGAGAGCAAUAUUACGAAAG",
    "quantity": "self-splicing fitness (ln)",
    "value": -5.04
  },
  {
    "ordered_residues": "GCGUAGCAAUAUUACGCUAU",
    "quantity": "self-splicing fitness (ln)",
    "value": -4.42
  },
  {
    "ordered_residues": "CCGCAGCAAUAUUACGUAUA",
    "quantity": "self-splicing fitness (ln)",
    "value": -3.6
  },
  {
    "ordered_residues": "GCUUAGCAAUAUUACGGGUA",
    "quantity": "self-splicing fitness (ln)",
    "value": -1.43
  },
  {
    "ordered_residues": "GCCUAGCAAUAUUACGAACG",
    "quantity": "self-splicing fitness (ln)",
    "value": -2.19
  },
  {
    "ordered_residues": "GCGUAGCAAUAUUACGUUAA",
    "quantity": "self-splicing fitness (ln)",
    "value": -2.13
  },
  {
    "ordered_residues": "AGUUAGCAAUAUUACGCGCA",
    "quantity": "self-splicing fitness (ln)",
    "value": -0.182
  },
  {
    "ordered_residues": "AACGAGCAAUAUUACGUAAA",
    "quantity": "self-splicing fitness (ln)",
    "value": -3
  },
  {
    "ordered_residues": "ACGUAGCAAUAUUACGGUUA",
    "quantity": "self-splicing fitness (ln)",
    "value": -0.772
  },
  {
    "ordered_residues": "CGCAAGCAAUAUUACGACUA",
    "quantity": "self-splicing fitness (ln)",
    "value": -1.47
  }
]
